Study system: T1, monomeric hIL-4R (R&D Systems) (human, UniProt P24394 26-231)
T1 construct: Bought (R&D Systems); also called hIL-4R monomer
T1 sequence: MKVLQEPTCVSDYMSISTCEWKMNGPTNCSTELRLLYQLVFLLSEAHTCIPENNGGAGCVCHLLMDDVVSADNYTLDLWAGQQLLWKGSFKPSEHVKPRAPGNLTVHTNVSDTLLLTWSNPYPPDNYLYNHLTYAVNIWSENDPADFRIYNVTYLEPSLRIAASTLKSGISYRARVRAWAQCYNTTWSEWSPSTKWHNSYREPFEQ
Assay: SPR (BIAcore 2000); antibody captured, monomeric hIL-4R injected
Reported endpoint: Kd (nM)
Quick reminder: number only, in nM, skip the unit.

Reference set (2 entries):
VAK11D4-1 (antibody, V domains shown, Apparently tested with mouse constant region (anti-mouse IgG capture/detection)) VH: QVRLVESGGGVVQPGRSLRLSCVASGFTFRSYGMHWVRQAPGRGLEWVAVISYDGSQTFYVDSVKVRFTISRDNSNNTLYLEMNSLRVDDTAVYFCVKEGRSGSWFDPWGQGTLVAVSS VL: DIHMTQSPSSLSASVGDRVTITCRASQAINNYLAWFQQKPGRTPKSLIFATSSLQSGVPSRFSGSGSGTDFTLTISSLQPEDFATYYCQQYNSHPWTFGQGTKVEIK; 0.05
VAK7G8-5 (antibody, V domains shown, Apparently tested with mouse constant region (anti-mouse IgG capture/detection)) VH: QVRLVESGGGVVQPGGSLRLSCTASGFIFRSYGMHWVRQAPGRGLEWVAVISYDGSKTFYVDSVKVRFTISRDNSKNTLYLEMNSLRVDDTAVYFCVKEGRSGSWFDPWGQGTLVAVSS VL: DIHMTQSPSSLSASVGDRVTITCRASQAINNFLAWFQQKPGKTPKSLIFATSSLQSGVPSRFSGSGSGTDFTLTISSLQPEDFATYYCQQYNSHPWTFGQGTKVEIR; 0.06

Now look at this one.
Form field: reported Kd of VAB 7B9-3 (antibody, V domains shown, Apparently tested with mouse constant region (anti-mouse IgG capture/detection)) VH: QVQLVQSGAEVKKPGASVKVSCKDSAYTFNRYGISWVRQAPGQGLEWMGWISAYTGNTVYAQKLQGRVTMTTDNSTSTAYMELRSLRSDDTAVYYCARDKSIFGVVRGFDYWGQGTLVTVSS VL: EIVMTQSPVTLSLSPGERATLPCRASQSVSSSLAWYQQKAGQSPRLLIYGASTRATGIPARFSGSGSGTEFTLTISNLQSEDFAVYYCQQYNNWPLTFGGGTKVEIK
1.01
